- EXPERIMENT: LC/MS of blood plasma sample: time from blood collection to cooling of blood (Table E)
- Assay type: physicochemical, human
- CONDITIONS: different from individual to individual, individuals with decrease, relative to 1 at 1 minute or less, collection to cooling 5 minutes
- Protocol: At room temperature, 5 mL of blood from a healthy subject was taken into a blood-collecting vessel containing EDTA, and the blood-collecting vessel was inverted for mixing, then cooled, and allowed to stand at 4° C. […]
Reported Rate of increase or decrease (second value, decrease) values for the following compounds.
Field format: numeric only.

Worked cases, Rate of increase or decrease (second value, decrease) given:
[[record]]
compound = "NCCc1c[nH]c2ccc(O)cc12"
readout_number = 0.63

[[record]]
compound = "OC[C@H]1O[C@@H](n2cnc3c(O)ncnc32)[C@H](O)[C@@H]1O"
readout_number = 0.64

[[record]]
compound = "Nc1nc2c(ncn2[C@@H]2O[C@H](COP(=O)(O)O)[C@@H](O)[C@H]2O)c(=O)[nH]1 [Guanosine monophosphate]"
readout_number = 0.59

[[record]]
compound = "Nc1ccn([C@@H]2O[C@H](CO)[C@@H](O)[C@H]2O)c(=O)n1"
readout_number = 0.46

[[record]]
compound = "Nc1ncnc2c1ncn2[C@@H]1O[C@H](CSCC[C@H](N)C(=O)O)[C@@H](O)[C@H]1O"
readout_number = 0.49


Qu. Tell me the measured Rate of increase or decrease (second value, decrease) of Nc1ncnc2c1ncn2[C@@H]1O[C@H](COP(=O)(O)O)[C@@H](O)[C@H]1O [Adenosine monophosphate] , please.
Ans. 0.62

Qu. Cool, now NC(=O)NC1NC(=O)NC1=O (stereo not shown)
Ans. 0.40

----------
- EXPERIMENT: GC/MS of serum sample: time from blood collection to centrifugation (Table G)
- Assay type: physicochemical, human
- CONDITIONS: detection intensity, blood collection to centrifugation, after 4 hours vs 15 minutes
MEASUREMENT LABEL: Increase or decrease

[[record]]
compound = "OC[C@@H](O)[C@@H](O[C@@H]1O[C@H](CO)[C@H](O)[C@H](O)[C@H]1O)[C@H](O)[C@@H](O)CO"
measurement_label = "Increase or decrease"
result = "Increase"

[[record]]
compound = "CC(=O)NCCCC[C@H](N)C(=O)O"
measurement_label = "Increase or decrease"
result = "Increase"

[[record]]
compound = "OC[C@H]1O[C@@](CO)(O[C@H]2O[C@H](CO)[C@@H](O)[C@H](O)[C@H]2O)[C@@H](O)[C@@H]1O"
measurement_label = "Increase or decrease"
result = "Increase"

[[record]]
compound = "O=C(O)CCCCCCCC(=O)O"
measurement_label = "Increase or decrease"
result = "Decrease"

[[record]]
compound = "CCCCCCC(N)C(=O)O (stereo not shown)"
measurement_label = "Increase or decrease"
result = "Increase"


Qu. Tell me the measured Increase or decrease of O=P(O)(O)OCC(O)CO (stereo not shown) [Glycerol-3-phosphate] , please.
Ans. Increase

Qu. Cool, now "O=C(O)/C=C\C(=O)O"
Ans. Increase

Qu. Cool, now "O=C(O)C=C(CC(=O)O)C(=O)O"
Ans. Increase

Qu. Cool, now "CCCCCCCCCCCCCCCCCCO"
Ans. Increase

Qu. Cool, now CC(O)(CC(=O)O)C(=O)O (stereo not shown)
Ans. Increase

Qu. Cool, now "Cn1c(=O)[nH]c2ncn(C)c2c1=O"
Ans. Increase

Qu. Cool, now "O=C(O)C(=O)O"
Ans. Increase

Qu. Cool, now "NCCc1ccc(O)c(O)c1"
Ans. Increase

Qu. Cool, now "NCCCCCN"
Ans. Increase
